# Assay Overview: yeast display, Sf9 membrane polyspecificity reagent, FACS + sequencing; frameworks hold sequencing errors
Quantity Measured: polyreactivity (PSR sort gate)

Example entries begin here.
- Seq: "QVQLVESGGGLVQAGGSLRLSCAASGFIFEWYTMGWYRQAPGKERELVARISSDGSTTYADSVKGRFTISRDNAKNTVYLQMNSLNPEDTAVYYCAADVTYPGLIYIYDYWGQGTQVTVSS"
  polyreactivity (PSR sort gate): "low polyreactivity"
- Seq: "QVHLVESGVGLVQAGGSLRLSCAASGYIFPYYTMGWYRQAPGKERELVAAITIGGSTYYADSVKGRFTISRDNAKNTVYLQMNSLKPEDTAVYYCAARSRYYDTRFDYWGQGTQVTVSS"
  polyreactivity (PSR sort gate): "low polyreactivity"
- Seq: "QVQLVESGGGLVQAGGSLRLSCAASGGIFTDYTMGWYRQAPGKERELVAAITWTGGSTYYADSVKGRFTISRDNAKNSVYLQMNSLKPEDTAVYYCAADEYWVNLDYWGQGTQVTVSS"
  polyreactivity (PSR sort gate): "low polyreactivity"
- Seq: "QVQLVESGGRLVQAGGSLRLSCAASGRIFATYAMGWYRQAPGKEWQLVAGITSGGRTNYADSVKGRFTISRDNAKNTVYLQMNSLKPEDTAVYYCDKRVWPRDQYGKRNPRMDYWGQGTQETVSS"
  polyreactivity (PSR sort gate): "high polyreactivity"

Note: attention shifts to another entry.
*Q* Please report the measured polyreactivity (PSR sort gate) for QVQLVESGGGLVQAGGSLRLSCAASGRTFDGYAMGWYRQAPGKERELVAAISGSGGRTYYADSVKGRFTISRDNAKNTVYLQMNSLKPEVTAVYYCRGYYKYYPDEYDYWGQGTQVTVSS
*A* high polyreactivity

* * *

# Assay Overview: yeast display, Sf9 membrane polyspecificity reagent, FACS + sequencing; frameworks hold sequencing errors
Quantity Measured: polyreactivity (PSR sort gate)

Example entries begin here.
- Seq: "QVQLVESGGGLVQAGGSLRLSCAASGRTFYLYTMGWYRQAPGKERELVAAITGGGRTYYADSVKGRFTISRDNAKNTVYLQMNSLKPEDTAVYYCNADYAYYSYDYWGQGTQVTVSS"
  polyreactivity (PSR sort gate): "low polyreactivity"
- Seq: "QVQLVESGGGLVQAGGRLRLSCAASGFIFRRYAIGWYRQAPGKERELVAAINRGGRTYYADSVKGRFTISRDNAKNTVYLQMNSLKPEDTAVYYCAVGSVSSDDWGQGTQVTVSS"
  polyreactivity (PSR sort gate): "high polyreactivity"
- Seq: "QVQLVESGGGLVQAGGSLRLSCAASGGIFAPNAKGWYRQAPGKEREFVAAISTGGGSTRYADSVKGRFTISRDNAKYTVYLQMNSLKPEDTAVYYCAATRVGVRRMDYWGQGTQVTVSS"
  polyreactivity (PSR sort gate): "low polyreactivity"
- Seq: "QVQLVESGGGLVQAGGSLRLSCAASGYTFWRYAMGWYRQAPGKERELVAAISQSGGRTYYADSVKGRFTISRDNAKNTVYLQMNSLKPEDTAVYYCATSSTQGDDYWGQGTQVTVSS"
  polyreactivity (PSR sort gate): "high polyreactivity"

*Q* Please report the measured polyreactivity (PSR sort gate) for QVQLVESGGGLVQAGGILRLSCAASGRTFSWNAMGWYRQAPGKERELVAAISNSGGSTYYADSVKGRFTISRDNAKNTVFLQMNSLKPEDTAVYYCAVYRYYGFSLWYDYWGQGTQVTVSS
*A* low polyreactivity

* * *

# Assay Overview: yeast display, Sf9 membrane polyspecificity reagent, FACS + sequencing; frameworks hold sequencing errors
Quantity Measured: polyreactivity (PSR sort gate)

- Seq: "QVQIVESGRGLVQAGGSLRLSCAPSGFNIPTNGMGWYRQATGKEREFVASITWRGGGTYYAESVKGRFTISRDNAKNTVFLQMNSLKPEDTAVYYCAAGRSWSSYWKYDYWGLGTQVTVSS"
  polyreactivity (PSR sort gate): "low polyreactivity"
- Seq: "QVQLVESGGGLVQAGGSLRLSCAASGRTFDPYARGGYRQAPGKERELVASISRGGSTYADSVKGRFTISRDNAKNTVYLQMNSLKPEDTAVYYCNTSLYTEGDAMDYWGQGTQVTVSS"
  polyreactivity (PSR sort gate): "low polyreactivity"
- Seq: "QVQLVESGGGLVQAGGRLRLSSAASGFIFAYNAMGWYRQGPGKERELVASIRTRGGSTYYADSVKGRFTISRDNAKNTVYLQMNSLKPEDTSVYYCAARPFPRRYDYWGQGSQVTVSS"
  polyreactivity (PSR sort gate): "low polyreactivity"
- Seq: "QVQLVESGGGLVQAGGSHRLSCAASGRIFSPYAMGWYRRAPGKERELVAAISYDDGITYYADSVKGRFTISRDNAKNTVYLQMNSLKPEDTAVYYCAADCVTRPAGDYWGQGTQVTVSS"
  polyreactivity (PSR sort gate): "low polyreactivity"
- Seq: "QVQLVESGGGLVQAGGSLRISCAASGIIFSVYAMAWYRQAPGKERELVAAISYSGGRTYYADSVKGRFTISRDNAKNTVYLQMNSLKPEDTAVYYCAAGFSLYLGFEYWGQGTQVTVSS"
  polyreactivity (PSR sort gate): "high polyreactivity"
- Seq: "QVQLVESGGGLVQAGGSLRLSCAASGSIFTEYAMGWYRQAPGKERELVAAISWSGATTYYADSVKGRFTISRDNAKNTVYLQMNSLKPEDTAVYYCAARWANRSYEYWGQGTQVSVSS"
  polyreactivity (PSR sort gate): "low polyreactivity"
- Seq: "QVQLVESGGGLVQAGGSLRLSCAASGSIFEYNDMGWYRQAPGKEREMVSAISWNGGSTYYADSVKGRFTISRDNAKNTVYLQMNSLKPEDTAVYYCAADGDPLWVASEYDSWGQGTQVTVSS"
  polyreactivity (PSR sort gate): "low polyreactivity"
- Seq: "QVQLVESGGGLVQAGGSLRLSCAASGSIFAYYAMGWYRQAPGKERELVAAITSGDSTYYADSVKGRFTISRDNAKNTVYLQMNSLKPEDSAVYYCAADVSWRSNWYDYWGQGTQVTVSS"
  polyreactivity (PSR sort gate): "low polyreactivity"
- Seq: "QVQLVESGGGLVQEGGSLRLSCAASGSILGRYAMGWYRQAPGKERELVAAITSSGGRTYYADSVKGRFTISRDNAKNTVYLQMNSLKREDTAVYYCNAVSWWYGYDYWGQGTQVSVSS"
  polyreactivity (PSR sort gate): "high polyreactivity"
- Seq: "QVQLVESGGGLVQAGGSLRLSCAASGSIFYDNALGWYRQAPGKERELVAAIDDSDRTYYADSVKGRFTISRDNAKNTVYLQMNSLKPEDTAVYYCARDRWKWHYGYDYWGQGTQVTVSS"
  polyreactivity (PSR sort gate): "low polyreactivity"

Give me polyreactivity (PSR sort gate) for each of these sequences, listed below.
1. QVQLVESGGGLVQAGGSLRLSCAASGRTFESYAMGWYRQAAGKERELVAAIRSRGGSTNYADSVKGRFTISRDNAKNTVYLQMNSLKPEDTAVYYCNKDGTWVARAVTYADFDYWGQGTQVTVSS
2. QVQLVESGGGVVQAGGSLRLSCAASGRILRGYALGWYRPAPGTERELVAAITWRGGSTYYADSVKGRFTISRDNAKNTVYLQMNSLKPEDTAVYYCAADRAYRYEMDYWGQGTQVTVSS
3. QVQLVESGGGLVQAGGSLRLICAASGITFTGYAMGWYREAPGKEREVVAPISKRGARTYYADSVKGRFTISRDNAKHTVYVQMNSLQPEDTAVYYCAVRRWGYWTGYRGLDYDYWGQGTQVTVSS
4. QVQLVESGGGLVHAGGSLRLSCAASGSIITYYAMGWSRQAPGKERELVAVISASGGRTYYADSVKVRFTISLDNAMYSVYLQMNSLKPEDTAVYYCAAYRSIYSFKFGYWGQGSQVTVSS
5. QVQLVESGGGLVQAGGSLRLSCAASGFTYPGYAMGWYRQAPRKERELVASITDNGANTYYADSVKGRFTISRDNAKNTVYLQMNSLKPEDTAVYYCAADPGRVTRVGVRYYYWGQGTQVTVSS
6. QVQLVESCGGLVQAGGSLRLSCAASGRTFYGYAMGWYRQAPGKERELVAAITASGGSTNYADSVKGRFTISRDNAKNTVYLQMNSLKPEDTAVYYCAARVYYLGQFYWYGYWGQGTQVTVSS

*A*
1. low polyreactivity
2. high polyreactivity
3. high polyreactivity
4. high polyreactivity
5. high polyreactivity
6. high polyreactivity

Give me polyreactivity (PSR sort gate) for each of these sequences, listed below.
1. QVQLVESGGGLVQAGGSLRLSCAASGRIFKNNTMGWYRQAPGKERELVAAISCSGGSTYYADSVKGRFTISRDNAKNTVYLQINSLKPEDTAVYYCATTYEPNGGIEDDYWGQGTQVTVSS
2. QDQLVESGGGIVQAGGSLRLSCAASGSTFYENAMGWYRQAPGKERELVAAITWSGGRTYYADSVKGRFTISRDNAKNTVYLQMNSLKPEDTAVYYCAALYGVSEEDDYWGQGTQVTVSS
3. QVQLVESGGGLVQAGGSLRLSCAASGSTFRGYALGWYRQAPGKERELVATISGSDGTTYYADSVKGRFTISRDNAKNTVYLQMNSLKPEDTAVYYCAAGETFEMYYWGQGTQVTVSS
4. QVQLVESGGGLVQAGGSLRLSCAASGSIFFVYDMGWYRQAPGKERELVAGIRWSGGRTSYADSVKGRFTISRDNAKNTVYLQMNRLKPEDAAVYYCAADPRSYFTSEYWGQGTQVTVSS
5. QVQLVESGGGLVQAGGSLRLSCAASGSTFTSYAMGWYRQAPGKERELVAGITSRGTSTYYADSVKGRFTISRDHAKNTVYLQMNSLKPEYTAVYYCAAVYLSYGPGSEDPLGYWGQGTQVTVSS

*A*
1. low polyreactivity
2. high polyreactivity
3. low polyreactivity
4. high polyreactivity
5. high polyreactivity

Values were extracted from the nanobody polyreactivity screen of Harvey et al. (2022).
